- test.conditions: buffer; pH 7.4; 200.0 µM
measured.metric: solubility kinetic (mg/mL)
Return type: number; implicit unit mg/mL.

Consider the reported solubility kinetic for these molecules:
CCC(=O)Nc1ccc(NC(=O)c2oc3ccccc3c2C)cc1 | 0.0012
CC(=O)c1ccc(OCCCC(=O)NC2CCCCC2C)cc1 (stereo not given) | 0.0258
O=S(=O)(c1ccc(Cl)cc1)N1CCN(Cc2cccnc2)CC1 | 0.0494
Cc1nc(-c2ccc(NC(=O)C(C)(C)C)cc2)c(-c2ccccc2)o1 | 0.0008
CNC(=O)c1ccc(NC(=O)/C=C/c2cccc(F)c2)cc1 | 0.0014

Q. Kindly indicate its recorded solubility kinetic. Item: Cc1ccc(CN2CCCN(C)CC2)c(C)c1
A. 0.0234

----------
- test.conditions: buffer; pH 7.4; 200.0 µM
measured.metric: log10(solubility kinetic) (log10 of the value in µg/mL)
Scale: decimal log of solubility kinetic, solubility kinetic in µg/mL.

Q. Kindly indicate its recorded log10(solubility kinetic). Item: O=C1CN(C(=O)COC(=O)c2cccs2)c2ccccc2N1
A. 1.47

Q. Kindly indicate its recorded log10(solubility kinetic). Item: COc1ccc(/C=C/C(=O)N2CCN(S(=O)(=O)c3ccccc3Br)CC2)cc1OC
A. 1.13

Q. Kindly indicate its recorded log10(solubility kinetic). Item: COc1ccc2c(c1)c(C(=O)CN1CCc3ccccc3C1)c(C)n2C
A. 1.47

Q. Kindly indicate its recorded log10(solubility kinetic). Item: CN(CCO)c1cc(N(C)CCO)c([N+](=O)[O-])cc1[N+](=O)[O-]
A. 1.62

Q. Kindly indicate its recorded log10(solubility kinetic). Item: Cc1ccc(O)c(Nc2ncnc3ccccc23)c1.Cl
A. 0.65

Q. Kindly indicate its recorded log10(solubility kinetic). Item: COc1ccccc1OCC(=O)Nc1nc2c(s1)CCCC2
A. 0.90

----------
// reported log10(solubility kinetic) per item
- test.conditions: buffer; pH 7.4; 200.0 µM
Scale: decimal log of solubility kinetic, solubility kinetic in µg/mL.

NS(=O)(=O)c1ccc(Sc2nc3ccccc3s2)c([N+](=O)[O-])c1 | 0.23

Q. Kindly indicate its recorded log10(solubility kinetic). Item: Cc1ccc(OCCC(=O)OCC(=O)NC2CCCC(C)C2C)cc1 (centres undefined)
A. 1.20

Q. Kindly indicate its recorded log10(solubility kinetic). Item: CN1C(CC(=O)Nc2ccc(Cl)cc2Cl)c2ccccc2CC1(C)C (centres undefined)
A. 1.00

Q. Kindly indicate its recorded log10(solubility kinetic). Item: CC(=O)c1cccc(Nc2cc(C)nc3ccc(C)cc23)c1.Cl
A. 1.67

Q. Kindly indicate its recorded log10(solubility kinetic). Item: CN(CC(=O)Nc1ccccc1Cl)C1CCCCC1
A. 1.17

Q. Kindly indicate its recorded log10(solubility kinetic). Item: COc1ccc(OCC(O)CNS(=O)(=O)c2cccc(Cl)c2)cc1 (centres undefined)
A. 1.71

Q. Kindly indicate its recorded log10(solubility kinetic). Item: CCOC(=O)c1c(C)[nH]c(C(=O)COC(=O)c2cc(C)oc2C)c1C
A. 0.48

----------
// reported log10(solubility kinetic) per item
- test.conditions: buffer; pH 7.4; 200.0 µM
Scale: decimal log of solubility kinetic, solubility kinetic in µg/mL.

CCCCn1c2ccccc2c2cc(CC(N)=O)ccc21 | 0.58
N#Cc1c(N)n(-c2ccc(N)cc2)c2nc3ccccc3nc12 | 0.08
COc1ccc(NS(=O)(=O)c2cn(C)cn2)cc1Cl | 1.23
CSCC[C@H](NC(=O)c1cccc(S(=O)(=O)N2CCCCCC2)c1)c1nc2ccccc2[nH]1 | 0.40
O=C(NCC1COc2ccccc2O1)c1cccs1 (configuration not stated) | 1.60

Switching to the query record.
Q. Kindly indicate its recorded log10(solubility kinetic). Item: COc1ccc2c(c1)C(NC(C)=O)C(=O)N2CCc1ccccc1 (configuration not stated)
A. 1.67
